Answer each item with its documented IC50.
TGT: Phosphatidylinositol 4,5-bisphosphate 3-kinase catalytic subunit delta isoform (Homo sapiens, UniProt O00329)
Sequence (O00329 whole entry): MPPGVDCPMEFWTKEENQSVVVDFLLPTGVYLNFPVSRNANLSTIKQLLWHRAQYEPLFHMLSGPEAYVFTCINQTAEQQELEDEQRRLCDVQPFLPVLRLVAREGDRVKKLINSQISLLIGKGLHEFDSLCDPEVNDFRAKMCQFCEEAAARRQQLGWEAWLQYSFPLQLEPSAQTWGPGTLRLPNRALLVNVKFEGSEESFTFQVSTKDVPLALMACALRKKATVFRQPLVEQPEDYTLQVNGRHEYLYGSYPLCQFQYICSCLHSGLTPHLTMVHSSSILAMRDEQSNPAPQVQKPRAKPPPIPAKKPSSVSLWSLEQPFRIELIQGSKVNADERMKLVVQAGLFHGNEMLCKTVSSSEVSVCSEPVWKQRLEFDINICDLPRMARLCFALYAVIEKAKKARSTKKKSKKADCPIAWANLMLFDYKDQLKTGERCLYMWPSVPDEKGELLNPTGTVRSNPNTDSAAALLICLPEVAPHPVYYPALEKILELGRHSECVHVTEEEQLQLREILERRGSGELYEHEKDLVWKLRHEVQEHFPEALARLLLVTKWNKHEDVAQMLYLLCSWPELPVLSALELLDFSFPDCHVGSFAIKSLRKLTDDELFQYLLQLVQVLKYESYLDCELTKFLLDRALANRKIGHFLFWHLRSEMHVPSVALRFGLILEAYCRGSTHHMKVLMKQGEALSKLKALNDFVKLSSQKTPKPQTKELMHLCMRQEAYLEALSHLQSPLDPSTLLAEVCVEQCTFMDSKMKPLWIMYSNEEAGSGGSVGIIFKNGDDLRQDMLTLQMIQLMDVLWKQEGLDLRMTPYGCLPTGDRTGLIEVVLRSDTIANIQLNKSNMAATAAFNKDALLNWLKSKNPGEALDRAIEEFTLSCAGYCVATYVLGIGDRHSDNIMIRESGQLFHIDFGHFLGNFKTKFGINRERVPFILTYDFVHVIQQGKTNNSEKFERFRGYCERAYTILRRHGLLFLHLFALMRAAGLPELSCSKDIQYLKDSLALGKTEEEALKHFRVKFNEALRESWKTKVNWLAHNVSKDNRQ
ASSAY_DETAILS: Inhibition of PI3K-delta (unknown origin)

| SMILES | IC50 |
| --- | --- |
| CS(=O)(=O)N1CCN(CCn2cnc3c(-n4c(C(F)F)nc5ccccc54)nc(N4CCOCC4)nc32)CC1 | < 30 nM |

# evaluate next
(Q) Field request: IC50 | item: `OCCn1cnc2c(-c3cn[nH]c3)nc(N3CCOCC3)nc21`
(A) < 30 nM
